- Target Desc: recombinant PP5-His6 (Homo sapiens, UniProt P53041)
- Construct: GST (N, cleaved yes)
- Sequence (P53041 1-499): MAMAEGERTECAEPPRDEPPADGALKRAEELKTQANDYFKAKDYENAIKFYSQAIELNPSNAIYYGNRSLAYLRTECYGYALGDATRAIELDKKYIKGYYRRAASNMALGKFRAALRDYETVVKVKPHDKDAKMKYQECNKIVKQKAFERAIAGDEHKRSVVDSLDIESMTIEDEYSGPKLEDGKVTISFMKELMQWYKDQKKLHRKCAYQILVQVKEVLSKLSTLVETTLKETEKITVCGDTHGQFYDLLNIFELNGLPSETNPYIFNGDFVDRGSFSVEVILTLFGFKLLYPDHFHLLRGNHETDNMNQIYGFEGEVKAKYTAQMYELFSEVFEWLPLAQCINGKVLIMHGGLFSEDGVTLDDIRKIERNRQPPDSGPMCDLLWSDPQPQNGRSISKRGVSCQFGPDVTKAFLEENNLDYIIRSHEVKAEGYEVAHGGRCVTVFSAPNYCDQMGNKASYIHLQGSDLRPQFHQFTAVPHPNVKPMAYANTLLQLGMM
- Assay Text: P13-BODIPY binding to PP5 by fluorescence anisotropy
- Protocol Conditions: measured with 10 nM BODIPY-labeled P13, one-site fit; read-out: binding affinity to PP5
Experimental Readout: Kd (µM)
Write the answer as a number in µM, unit excluded.

Ask: State Kd (recombinant PP5-His6 (Homo sapiens, UniProt P53041)) of Cc1ccc(NS(=O)(=O)c2c(C)noc2C)cc1C [Compound P13] .
Result: 0.376

* * *

- Target Desc: recombinant PP5-His6 (Homo sapiens)
- Construct: GST (N, cleaved yes)
- Sequence (P53041 1-499): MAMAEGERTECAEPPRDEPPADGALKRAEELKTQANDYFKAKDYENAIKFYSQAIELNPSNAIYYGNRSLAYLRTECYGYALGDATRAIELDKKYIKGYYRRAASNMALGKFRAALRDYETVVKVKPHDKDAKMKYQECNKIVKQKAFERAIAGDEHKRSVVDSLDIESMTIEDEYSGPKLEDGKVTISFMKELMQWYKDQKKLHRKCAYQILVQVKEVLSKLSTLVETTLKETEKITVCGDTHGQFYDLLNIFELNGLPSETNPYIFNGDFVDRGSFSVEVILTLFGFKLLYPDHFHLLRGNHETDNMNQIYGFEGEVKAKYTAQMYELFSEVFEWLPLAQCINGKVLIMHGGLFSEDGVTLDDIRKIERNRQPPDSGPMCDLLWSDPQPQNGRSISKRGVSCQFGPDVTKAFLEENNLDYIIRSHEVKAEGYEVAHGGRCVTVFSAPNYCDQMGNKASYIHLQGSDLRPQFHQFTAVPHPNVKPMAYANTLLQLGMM
- Assay Text: PP5 Phosphatase Activity and Inhibition Assay (PiPer phosphate release, phospho-S211-GR peptide)
- Protocol Conditions: phospho-S211-GR peptide substrate; IC50 converted to Ki
Experimental Readout: Ki (µM)
Number only, in µM; omit the unit.

Ask: Identify the reported Ki for the following entry. "Cc1ccc(NS(=O)(=O)c2c(C)noc2C)cc1C"
Result: 0.234

Ask: Supply recorded Ki for "COC(=O)c1cccc(NS(=O)(=O)c2c(C)noc2C)c1" here.
Result: 0.277

These data points were gathered from patent US20250360108A1.
